Biological target: FLT3 (Homo sapiens (Human), UniProt P36888)
Sequence (P36888 27-993): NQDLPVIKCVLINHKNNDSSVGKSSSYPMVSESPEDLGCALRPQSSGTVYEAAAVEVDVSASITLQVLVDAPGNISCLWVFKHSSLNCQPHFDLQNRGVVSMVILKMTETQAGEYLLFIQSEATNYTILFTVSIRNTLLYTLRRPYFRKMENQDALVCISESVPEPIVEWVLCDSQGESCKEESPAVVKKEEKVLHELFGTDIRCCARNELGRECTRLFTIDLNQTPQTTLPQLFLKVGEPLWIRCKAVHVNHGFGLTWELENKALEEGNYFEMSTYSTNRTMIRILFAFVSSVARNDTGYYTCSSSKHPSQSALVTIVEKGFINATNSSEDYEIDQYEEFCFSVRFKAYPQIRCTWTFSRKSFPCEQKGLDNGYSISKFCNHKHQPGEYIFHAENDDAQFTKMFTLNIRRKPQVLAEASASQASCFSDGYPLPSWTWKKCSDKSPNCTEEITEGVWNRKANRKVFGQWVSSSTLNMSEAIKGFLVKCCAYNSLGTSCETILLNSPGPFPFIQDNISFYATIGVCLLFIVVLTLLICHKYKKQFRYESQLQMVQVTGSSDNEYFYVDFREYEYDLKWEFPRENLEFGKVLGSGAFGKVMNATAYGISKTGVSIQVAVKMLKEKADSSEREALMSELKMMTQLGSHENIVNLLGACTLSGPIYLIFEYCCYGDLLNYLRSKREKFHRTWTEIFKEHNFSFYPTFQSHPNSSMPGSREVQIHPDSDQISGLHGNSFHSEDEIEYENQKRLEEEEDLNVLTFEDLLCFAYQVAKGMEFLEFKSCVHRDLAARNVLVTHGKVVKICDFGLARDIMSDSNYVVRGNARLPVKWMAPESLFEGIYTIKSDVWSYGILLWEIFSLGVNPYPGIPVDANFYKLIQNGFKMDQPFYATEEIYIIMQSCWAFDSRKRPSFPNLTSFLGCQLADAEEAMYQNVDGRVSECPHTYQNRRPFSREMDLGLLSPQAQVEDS
Experiment: FLT3 kinase test (Z'-LYTE)
Format: biochemical
Details: Table 1; read-out: FLT3-inhibition IC50-value
recorded metric: IC50 (µM)

INSERT INTO results (compound_string, endpoint_result) VALUES
  ('COc1ccc2[nH]cc(-c3cc4nn(C)cc4c(O[C@H](C)[C@H]4CNC(=O)C4)n3)c2c1', 34.1),
  ('C[C@@H](Oc1nc(-c2cnn(C(C)(C)C)c2)cc2nn(C)cc12)[C@H]1CNC(=O)C1', 14.8),
  ('Cc1ccc(-c2cc3nn(C)cc3c(O[C@H](C)[C@H]3CNC(=O)C3)n2)s1', 16);

P = C[C@@H](Oc1cc(-c2ccc3c(cnn3C)c2)cc2nn(C)cc12)[C@H]1CNC(=O)C1
Q = CC(C)Oc1ccc(-c2cc(O[C@H](C)[C@H]3CNC(=O)C3)c3cn(C)nc3c2)cn1
Field: lower recorded IC50 (choose P or Q ) // output: label of the selected item
P
(P: 3.69 µM, Q: 26.6 µM)

a = COc1cc(-c2cc3nn(C)cc3c(O[C@H](C)[C@H]3CNC(=O)C3)n2)ccc1OC(C)C
b = C[C@@H](Oc1nc(-c2cnn(C3CCN(C)CC3)c2)cc2nn(C)cc12)[C@H]1CNC(=O)C1
Could you kindly indicate whether a or b has the higher IC50 value? // output: label of the selected item
b

a = C[C@@H](Oc1nc(-c2cnn(C3CCOCC3)c2)cc2nn(C)cc12)[C@H]1CNC(=O)C1
b = C[C@@H](Oc1nc(-c2cnn([C@H]3CC[C@H](N4CCN(C)C(=O)C4)CC3)c2)cc2nn(C)cc12)[C@H]1CNC(=O)C1
c = C[C@@H](Oc1nc(-c2cnn(C3CCNCC3)c2)cc2nn(C)cc12)[C@H]1CNC(=O)C1
Number of compounds to sort: 3. Sort criterion: IC50, ascending. In your reply, arrange the labels in the requested order.
c, b, a

P = C[C@@H](Oc1cc(-c2ccc(F)cn2)cc2nn(C)cc12)[C@H]1CNC(=O)C1
Q = C[C@@H](Oc1nc(-c2ccc(C3CC3)nc2)cc2nn(C)cc12)[C@H]1CNC(=O)C1
Could you kindly indicate whether P or Q has the higher IC50 value? // output: label of the selected item
P
(P: 42.8 µM, Q: 9.52 µM)

====

Assay: Human liver microsomal stability test
Type: in vitro ADME
Conditions: human liver microsomes; Qh = liver blood flow
recorded metric: microsomal stability Cl [% Qh] (% Qh)

a = COc1cc(-c2cc(O[C@H](C)[C@H]3CNC(=O)C3)c3cccnc3c2)ccc1C(F)(F)F
b = C[C@@H](Oc1nc(-c2ccc(N3CCN(C)CC3)cc2)cc2nn(C)cc12)[C@H]1CNC(=O)C1
Could you kindly indicate whether a or b has the higher microsomal stability Cl [% Qh] value? // output: label of the selected item
a
(a: 54 % Qh, b: 34 % Qh)

====

Biological target: Recombinant human Syk (amino acids 342-635), GST-Syk kinase fusion protein (Homo sapiens (Human), UniProt P43405)
Test: Syk kinase test (Kinase Glo luminescence)
Type: biochemical
Conditions: Table 1; read-out: SYK-inhibition IC50-value
recorded metric: IC50 (µM)

Worked cases, answers included:
INSERT INTO assay_data (compound, endpoint_result) VALUES
  ('C[C@@H](Oc1nc(-c2cnn(C3CCCCO3)c2)cc2nn(C)cc12)[C@H]1CNC(=O)C1 (stereo partly shown)', 0.0466),
  ('C[C@@H](Oc1nc(-c2ccc(C(F)(F)F)cc2)cc2nn(C)cc12)[C@H]1CNC(=O)C1', 0.145);

A = C[C@@H](Oc1cc(-c2n[nH]c3ccc(C#N)cc23)cc2nn(C)cc12)[C@H]1CNC(=O)C1
B = C[C@@H](Oc1cc(-c2ccc(F)cn2)cc2nn(C)cc12)[C@H]1CNC(=O)C1
Field: lower recorded IC50 (choose A or B ) // output: label of the selected item
A
(A: 0.0065 µM, B: 0.164 µM)

a = C[C@@H](Oc1nc(-c2cnn([C@H]3CC[C@H](N4CCN(C)C(=O)C4)CC3)c2)cc2nn(C)cc12)[C@H]1CNC(=O)C1
b = C[C@@H](Oc1nc(-c2ccc(C(F)(F)F)nc2)cc2nn(C)cc12)[C@H]1CNC(=O)C1
Field: lower recorded IC50 (choose a or b ) // output: label of the selected item
a

====

Target: FLT3 (Homo sapiens (Human))
Test: FLT3 kinase test (Z'-LYTE)
Type: biochemical
Settings: Table 2a; read-out: IC50 in μM (FLT3-Inhibition)
recorded metric: IC50 (µM)

INSERT INTO results (compound, endpoint_result) VALUES
  ('C[C@@H](Oc1nc(-c2cnn(C(C)(C)C)c2)cc2nn(C)cc12)[C@H]1CNC(=O)C1 [Example 2]', 14.8),
  ('C[C@@H](Oc1cc(-c2cnn(C(C)(C)C)c2)cc2nn(C)cc12)[C@H]1CNC(=O)C1 [Example 18]', 13.4);

====

Target: Recombinant human Syk (amino acids 342-635), GST-Syk kinase fusion protein (Homo sapiens (Human), UniProt P43405)
Test: Syk kinase test (Kinase Glo luminescence)
Format: biochemical
Details: Table 1; read-out: SYK-inhibition IC50-value
Protocol: The output file of the reader is a csv file that contains the well number and measured relative light units (RLU). […] Based on this values the % value for the measurement of each substance concentration was calculated using an Assay Explorer software (Accelrys). Normally, the % ctrl values calculated are between 0% and 100% values but may also occur outside these limits in individual cases based on variability or compound characteristics. […]
recorded metric: IC50 (nM)

Worked cases, answers included:
INSERT INTO assay_data (compound, recorded_metric, measure_unit, endpoint_result) VALUES
  ('C[C@@H](Oc1nc(-c2cnn(CCC(F)(F)F)c2)cc2nn(C)cc12)[C@H]1CNC(=O)C1 [Example 76]', 'IC50', 'nM', 58.3),
  ('C[C@@H](Oc1nc(-c2ccc3c(cnn3C)c2)cc2nn(C)cc12)[C@H]1CNC(=O)C1 [Example 62]', 'IC50', 'nM', 19.3),
  ('COc1cc(-c2cc3nn(C)cc3c(O[C@H](C)[C@H]3CNC(=O)C3)n2)cc(OC)c1OC [Example 52]', 'IC50', 'nM', 41.3),
  ('COc1cc(-c2cc3nn(C)cc3c(O[C@H](C)[C@H]3CNC(=O)C3)n2)ccc1OC(C)C [Example 81]', 'IC50', 'nM', 24),
  ('C[C@@H](Oc1nc(-c2cnn(C(C)(C)C)c2)cc2nn(C)cc12)[C@H]1CNC(=O)C1 [Example 2]', 'IC50', 'nM', 14.4);

1 = C[C@@H](Oc1nc(-c2ccc(N3CCN(C)CC3)cc2)cc2nn(C)cc12)[C@H]1CNC(=O)C1 [Example 67]
2 = C[C@@H](Oc1nc(-c2ccc3c(c2)CN(C)CC3)cc2nn(C)cc12)[C@H]1CNC(=O)C1 [Example 75]
3 = C[C@@H](Oc1cc(-c2ccc3c(cnn3C)c2)cc2nn(C)cc12)[C@H]1CNC(=O)C1 [Example 28]
Returns the items ordered by IC50, from maximum to minimum. In your reply, arrange the labels in the requested order.
2, 3, 1

====

Target: Recombinant human Syk (amino acids 342-635), GST-Syk kinase fusion protein (Homo sapiens (Human), UniProt P43405)
Assay: Syk kinase test (Kinase Glo luminescence)
Type: biochemical
Settings: Table 2a; read-out: IC50 in μM (SYK-Inhibition)
recorded metric: IC50 (µM)

I = C[C@@H](Oc1nc(-c2cnn(C(C)(C)C)c2)cc2nn(C)cc12)[C@H]1CNC(=O)C1
II = C[C@@H](Oc1cc(-c2cnn(C(C)(C)C)c2)cc2nn(C)cc12)[C@H]1CNC(=O)C1
Could you kindly indicate whether I or II has the higher IC50 value? // output: label of the selected item
I
(I: 0.0144 µM, II: 0.0046 µM)

====

Target: Recombinant human Aurora B (amino acids 1-344) (Homo sapiens (Human), UniProt Q96GD4)
Sequence (Q96GD4 whole entry, the tested form may be a part): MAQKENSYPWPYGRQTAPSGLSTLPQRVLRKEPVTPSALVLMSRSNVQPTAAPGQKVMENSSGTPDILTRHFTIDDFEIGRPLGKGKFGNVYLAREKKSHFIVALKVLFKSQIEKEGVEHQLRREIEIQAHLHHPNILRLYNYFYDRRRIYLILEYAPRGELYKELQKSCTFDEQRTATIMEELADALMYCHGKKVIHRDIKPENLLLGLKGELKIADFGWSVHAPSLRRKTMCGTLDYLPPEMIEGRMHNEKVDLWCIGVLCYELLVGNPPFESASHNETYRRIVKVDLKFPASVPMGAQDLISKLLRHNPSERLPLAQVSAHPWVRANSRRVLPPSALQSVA
Test: Aurora B kinase test (ADP Glo luminescence)
Type: biochemical
Details: Table 2a; read-out: IC50 in μM (AURB-Inhibition)
List of IC50 values.

INSERT INTO results (compound, endpoint_result) VALUES
  ('C[C@@H](Oc1cc(-c2cnn(C(C)(C)C)c2)cc2nn(C)cc12)[C@H]1CNC(=O)C1 [Example 18]', '> 50 µM');

For the next question, use this compound.
Please report the recorded IC50 for C[C@@H](Oc1nc(-c2cnn(C(C)(C)C)c2)cc2nn(C)cc12)[C@H]1CNC(=O)C1 [Example 2] .
> 50 µM
